# Tested on: UACC-62 melanoma
# testMethodNotes: NCI-60 one-dose screen, 48 h (100 = growth as untreated, 0 = no growth, -100 = all killed)
# testParameters: 10 µM unless noted
This is part of a sample that, as a whole, favours compounds with a hit. Of some 83,000 tested, about 20% had one in any assay. Where a SMILES comes first, the peptide text is derived from it.

compound: Oc1ccc(Cc2ccccc2Cl)c(O)c1
readoutUnits: %
growth: 85.7

compound: C#CCOC(=O)Nc1ccccc1
readoutUnits: %
growth: 104

compound: O=[N+]([O-])c1cccc(SSc2cccc([N+](=O)[O-])c2)c1
readoutUnits: %
growth: 94.2

compound: NC(Cc1ccccc1)C(=O)NC(Cc1ccccc1)C(=O)O (stereo not drawn) (H-Phe-Phe-OH; configuration not given here)
readoutUnits: %
growth: 104

compound: CCCCNc1ccc(Nc2ccccc2)cc1
readoutUnits: %
growth: 60.6

compound: Brc1ccc(SSc2ccc(Br)cc2)cc1
readoutUnits: %
growth: 96.9

compound: OCC1OC(O)C(O)C(O)C1O (configuration not stated)
readoutUnits: %
growth: 117

====

# Tested on: K-562 leukemia
# testMethodNotes: NCI-60 one-dose screen, 48 h (100 = growth as untreated, 0 = no growth, -100 = all killed)
# testParameters: 10 µM unless noted
Compounds without any hit were thinned out: in the full panel of roughly 83,000, 20% have a hit.
quantity: growth (%)

molecule: COc1ccc(N/C=C/C2=[N+](C)c3ccccc3C2(C)C)c(OC)c1
readoutUnits: %
recordedValue: 103
--
molecule: OCCN1CCCCCCC1
readoutUnits: %
recordedValue: 105
--
molecule: Cc1cc(-c2ccc(N=Nc3ccc4c(S(=O)(=O)O)cc(S(=O)(=O)O)c(N)c4c3O)c(C)c2)ccc1N=Nc1ccc2c(S(=O)(=O)O)cc(S(=O)(=O)O)c(N)c2c1O
readoutUnits: %
recordedValue: 90.8
--
molecule: ClCCOCCOc1ccc(C2CCCCC2)cc1
readoutUnits: %
recordedValue: 118
--
molecule: O=[N+]([O-])c1cccc(SSc2cccc([N+](=O)[O-])c2)c1
readoutUnits: %
recordedValue: 94.3
--
molecule: c1ccc(-c2nc3ccccc3s2)cc1
readoutUnits: %
recordedValue: 102
--
molecule: C#CCOC(=O)Nc1ccccc1
readoutUnits: %
recordedValue: 96.9
--
molecule: CC(=O)NCC(=O)c1ccc([N+](=O)[O-])cc1
readoutUnits: %
recordedValue: 101
--
molecule: CC(C)NC(=O)N/C=C(\C#N)C(N)=O
readoutUnits: %
recordedValue: 116
--
molecule: Cc1ccc(S(=O)(=O)c2ccccc2)cc1
readoutUnits: %
recordedValue: 23.2
--
molecule: OCC1OC(O)C(O)C(O)C1O (configuration not stated)
readoutUnits: %
recordedValue: 110
--
molecule: CC(C)(O)C(=O)O
readoutUnits: %
recordedValue: 123

====

# Tested on: SR leukemia
# testMethodNotes: NCI-60 one-dose screen, 48 h (100 = growth as untreated, 0 = no growth, -100 = all killed)
# testParameters: 10 µM unless noted
This is part of a sample that, as a whole, favours compounds with a hit. Of some 83,000 tested, about 20% had one in any assay. Activity calls are given as the source filed them. How the source made its calls: active means growth percent below 10; inactive means the rest.
quantity: growth

compound: CC(=O)OC(C)C(=O)NCC(C)O (stereo not given)
testTarget: SR leukemia
quantity: growth
recordedValue: 88% (inactive)
--
compound: N#CC(C#N)N=Nc1ccc(Cl)cc1
testTarget: SR leukemia
quantity: growth
recordedValue: 53.7% (inactive)
--
compound: Nc1cc(N)c(N)cc1N
testTarget: SR leukemia
quantity: growth
recordedValue: -7.21% (active)
--
compound: O=C(Cc1ccccc1)c1ccc(O)c(Cl)c1
testTarget: SR leukemia
quantity: growth
recordedValue: 10.2% (inactive)
--
compound: CC(C)C(C)(C)c1ccc(O)cc1
testTarget: SR leukemia
quantity: growth
recordedValue: 97.8% (inactive)
--
compound: CCCCOc1ccc(Nc2cc(Cl)ccc2C(=O)O)cn1
testTarget: SR leukemia
quantity: growth
recordedValue: 96.1% (inactive)
--
compound: CC(=O)NCC(=O)c1ccc([N+](=O)[O-])cc1
testTarget: SR leukemia
quantity: growth
recordedValue: 104% (inactive)
--
compound: OCCN1CCCCCCC1
testTarget: SR leukemia
quantity: growth
recordedValue: 109% (inactive)
--
compound: Nc1ncnc2c1ncn2C1OC(COP(=O)(O)O)C(O)C1O (stereo not given)
testTarget: SR leukemia
quantity: growth
recordedValue: 111% (inactive)
--
compound: Fc1ccc([I+]c2ccc(F)cc2)cc1
testTarget: SR leukemia
quantity: growth
recordedValue: 38.6% (inactive)
--
compound: c1ccc2c(c1)OC1OC2Oc2ccccc21
testTarget: SR leukemia
quantity: growth
recordedValue: 76.1% (inactive)
--
compound: CCN(CCNS(C)(=O)=O)c1ccc(N)c(C)c1
testTarget: SR leukemia
quantity: growth
recordedValue: 94.9% (inactive)
--
compound: CC1(C)COC(=S)N1
testTarget: SR leukemia
quantity: growth
recordedValue: 93.8% (inactive)
--
compound: NC(=O)NCCCC(N)C(=O)O (stereo not given)
testTarget: SR leukemia
quantity: growth
recordedValue: 84% (inactive)
--
compound: O=CN1CCCCC1
testTarget: SR leukemia
quantity: growth
recordedValue: 119% (inactive)
--
compound: O=C1c2c(O)ccc(O)c2C(=O)c2c(NCCNCCO)ccc(NCCNCCO)c21
testTarget: SR leukemia
quantity: growth
recordedValue: -12.7% (active)
--
compound: O=C1C=C(Nc2ccccc2)c2ccccc2C1=O
testTarget: SR leukemia
quantity: growth
recordedValue: 84.5% (inactive)
--
compound: O=C(O)CCCl
testTarget: SR leukemia
quantity: growth
recordedValue: 83.7% (inactive)
--
compound: CN(C)CC1CCCCCC(CN(C)C)C1=O (stereo not given)
testTarget: SR leukemia
quantity: growth
recordedValue: 5.93% (active)
--
compound: CCCCOC(=O)/C=C\C(=O)NC(N)=O
testTarget: SR leukemia
quantity: growth
recordedValue: -22.3% (active)
--
compound: Cc1ccc(S(=O)(=O)c2ccccc2)cc1
testTarget: SR leukemia
quantity: growth
recordedValue: 34.7% (inactive)
--
compound: CC(C)(O)C(=O)O
testTarget: SR leukemia
quantity: growth
recordedValue: 119% (inactive)
--
compound: CC1CCC(C(C)C)C(NNC(N)=O)C1 (stereo not given)
testTarget: SR leukemia
quantity: growth
recordedValue: 100% (inactive)
--
compound: N#CC(C#N)N=Nc1cc(Cl)ccc1Cl
testTarget: SR leukemia
quantity: growth
recordedValue: 106% (inactive)
--
compound: OCC1OC(O)C(O)C(O)C1O (stereo not given)
testTarget: SR leukemia
quantity: growth
recordedValue: 106% (inactive)
--
compound: O=c1n(CC2CO2)c(=O)n(CC2CO2)c(=O)n1CC1CO1 (stereo not given)
testTarget: SR leukemia
quantity: growth
recordedValue: 17.8% (inactive)
--
compound: CC(C)NC(=O)N/C=C(\C#N)C(N)=O
testTarget: SR leukemia
quantity: growth
recordedValue: 100% (inactive)
--
compound: CCOC(=O)c1c(C)cc(=O)oc1C
testTarget: SR leukemia
quantity: growth
recordedValue: 92% (inactive)
--
compound: c1ccc(-c2nc3ccccc3s2)cc1
testTarget: SR leukemia
quantity: growth
recordedValue: 103% (inactive)
--
compound: Oc1ccc(Cc2ccccc2Cl)c(O)c1
testTarget: SR leukemia
quantity: growth
recordedValue: 95.7% (inactive)
